- assay-target: ZFP SBS#1078 (synthetic, UniProt P08047)
- Sequence (P08047 other isoform, or with tags, fused parts or gaps): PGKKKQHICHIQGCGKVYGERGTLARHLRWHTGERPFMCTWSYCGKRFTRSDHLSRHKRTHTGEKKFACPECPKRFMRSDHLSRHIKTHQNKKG
- assay-summary: EMSA
- conditions-used: tags: MBP fusion
assay-metric: Kd (nM)
Response body: numeric value in nM, unit text excluded.

## Input Name the recorded Kd of the binder listed here: GGGGGGGCC (dsDNA) DNA 1: GGGGGGGCC DNA 2: GGCCCCCCC
## Output 0.2
